Experiment: Solubility determination (equilibrium solubility, 24 hrs stirring at room temperature, HPLC)
Format: physicochemical
Settings: pH of the filtrate after 24 hrs; FeSSIF
Where a name gives a salt, the structure may show the parent alone.
valueKind: pH24 hrs

## Input Suppose we examine the molecule Cc1c(NC(=O)c2cc(C3CC3)c(CN3CCCC[C@H]3C(=O)O)cn2)cccc1-c1cccc(NC(=O)c2cc(C3CC3)c(CN3CCCC[C@H]3C(=O)O)cn2)c1C [free-form crystalline form F] ; what pH24 hrs value has been reported?
## Output 4.99

## Input Would you kindly repeat that for Cc1c(NC(=O)c2cc(C3CC3)c(CN3CCCC[C@H]3C(=O)O)cn2)cccc1-c1cccc(NC(=O)c2cc(C3CC3)c(CN3CCCC[C@H]3C(=O)O)cn2)c1C [crystalline form B of disodium salt anhydrate] ?
## Output 6.90

## Input Would you kindly repeat that for Cc1c(NC(=O)c2cc(C3CC3)c(CN3CCCC[C@H]3C(=O)O)cn2)cccc1-c1cccc(NC(=O)c2cc(C3CC3)c(CN3CCCC[C@H]3C(=O)O)cn2)c1C [crystalline form A of disodium salt hydrate] ?
## Output 7.95

## Input Would you kindly repeat that for Cc1c(NC(=O)c2cc(C3CC3)c(CN3CCCC[C@H]3C(=O)O)cn2)cccc1-c1cccc(NC(=O)c2cc(C3CC3)c(CN3CCCC[C@H]3C(=O)O)cn2)c1C [free-form crystalline form D] ?
## Output 4.94

## Input Would you kindly repeat that for Cc1c(NC(=O)c2cc(C3CC3)c(CN3CCCC[C@H]3C(=O)O)cn2)cccc1-c1cccc(NC(=O)c2cc(C3CC3)c(CN3CCCC[C@H]3C(=O)O)cn2)c1C [free-form crystalline form C] ?
## Output 4.90

###

Assay: Solubility determination (equilibrium solubility, 24 hrs stirring at room temperature, HPLC)
Type: physicochemical
Conditions: pH of the filtrate after 24 hrs; Water
Structures can show the parent of a compound that is named as a salt.
Criterion: pH24 hrs meeting or surpassing 7. Met: Yes. Not met: No.

## Input Kindly determine if pH24 hrs recorded for Cc1c(NC(=O)c2cc(C3CC3)c(CN3CCCC[C@H]3C(=O)O)cn2)cccc1-c1cccc(NC(=O)c2cc(C3CC3)c(CN3CCCC[C@H]3C(=O)O)cn2)c1C [free-form crystalline form C] is above or exactly 7.
## Output No

## Input Would you kindly repeat that for Cc1c(NC(=O)c2cc(C3CC3)c(CN3CCCC[C@H]3C(=O)O)cn2)cccc1-c1cccc(NC(=O)c2cc(C3CC3)c(CN3CCCC[C@H]3C(=O)O)cn2)c1C [free-form crystalline form D] ?
## Output No

## Input Would you kindly repeat that for Cc1c(NC(=O)c2cc(C3CC3)c(CN3CCCC[C@H]3C(=O)O)cn2)cccc1-c1cccc(NC(=O)c2cc(C3CC3)c(CN3CCCC[C@H]3C(=O)O)cn2)c1C [crystalline form B of disodium salt anhydrate] ?
## Output Yes

## Input Would you kindly repeat that for Cc1c(NC(=O)c2cc(C3CC3)c(CN3CCCC[C@H]3C(=O)O)cn2)cccc1-c1cccc(NC(=O)c2cc(C3CC3)c(CN3CCCC[C@H]3C(=O)O)cn2)c1C [free-form crystalline form F] ?
## Output No

## Input Would you kindly repeat that for Cc1c(NC(=O)c2cc(C3CC3)c(CN3CCCC[C@H]3C(=O)O)cn2)cccc1-c1cccc(NC(=O)c2cc(C3CC3)c(CN3CCCC[C@H]3C(=O)O)cn2)c1C [crystalline form A of disodium salt hydrate] ?
## Output Yes
